Cited source: ChEMBL document CHEMBL4837256

System: Cryptococcus neoformans
Assay: Antifungal activity against Cryptococcus neoformans H99S assessed as inhibition of fungal growth measured after 72 hrs by Plate reader assay
Type: functional
measured-attribute: MIC (µg/mL)
API: value field is a number in µg/mL; no unit string.

smi | measured-attribute | value-observed
C[C@@H]1[C@H](O)[C@@H](C)/C=C/C=C/C=C/C=C/C=C/C=C/C=C/[C@H](O[C@@H]2O[C@H](C)[C@@H](O)[C@H](N)[C@@H]2O)C[C@@H]2O[C@](O)(C[C@@H](O)C[C@@H](O)[C@H](O)CC[C@@H](O)C[C@@H](O)CC(=O)O[C@H]1C)C[C@H](O)[C@H]2C(=O)O | MIC | 0.25

Kindly consider the entry below.
Challenge: Name the recorded MIC of the item OC(Cn1cncn1)(Cn1cncn1)c1ccc(F)cc1F in your answer.
Response given: 2
